B1: HDV Ribozyme (parent)
chain: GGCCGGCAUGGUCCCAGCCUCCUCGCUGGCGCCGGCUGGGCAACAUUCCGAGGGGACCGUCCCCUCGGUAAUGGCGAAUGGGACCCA

variants of: B1; assay: self-cleavage, relative activity (ratio to wild type); higher = more cleavage; co-transcriptional
Reported values of self-cleavage for individual entries
Output spec: single numeric token, no unit.

These solved cases illustrate the format of a correct answer.
>>> df
   mutant_label  assay_value
0     G35C A71C            0
1      A8U C61G        0.623
2     U69G C75U       0.0615
3     C14A G35U        0.232
4      G6A G31A       0.0992

Fill in the blank: the reported self-cleavage of G59C U79G is ____.
0.712

Fill in the blank: the reported self-cleavage of A51C G52U is ____.
0.601

Fill in the blank: the reported self-cleavage of C33U G40A is ____.
1.06

Fill in the blank: the reported self-cleavage of C62G A70G is ____.
0.578

Fill in the blank: the reported self-cleavage of U46C G52U is ____.
1.05
